// provenance: patent US20210254056A1

system: hepatocytes; assay: RNA-seq of hepatocytes treated with Phase III failure compounds; settings: gene CTH; hepatocytes
Labelling field: enter label 1 if recorded RNA-seq results: CTH expression is less than 0.2. Enter label 0 if it equals or exceeds that cut-off.

Example entries begin here.
[[record]]
molecule = "O=P(O)(NCCCl)NCCCl [Palifosfamide]"
label_class = "label 0"

[[record]]
molecule = "NC(=O)c1ccc(I)c([N+](=O)[O-])c1"
label_class = "label 0"


input: Dear reviewer, please state whether COc1cc2c(Oc3ccc4[nH]c(C)cc4c3F)ncnc2cc1OCCCN1CCCC1 has RNA-seq results: CTH expression strictly beneath 0.2.
output: label 0

input: Dear reviewer, please state whether COc1cc2nccc(Oc3ccc(NC(=O)Nc4cc(C)on4)c(Cl)c3)c2cc1OC has RNA-seq results: CTH expression strictly beneath 0.2.
output: label 1

input: Dear reviewer, please state whether CCOC(=O)N1c2ccc(C(F)(F)F)cc2[C@@H](N(Cc2cc(C(F)(F)F)cc(C(F)(F)F)c2)C(=O)OC)C[C@H]1CC has RNA-seq results: CTH expression strictly beneath 0.2.
output: label 0

input: Dear reviewer, please state whether CCN(CC)CCN(Cc1ccc(-c2ccc(C(F)(F)F)cc2)cc1)C(=O)Cn1c(SCc2ccc(F)cc2)nc(=O)c2c1CCC2 has RNA-seq results: CTH expression strictly beneath 0.2.
output: label 0

input: Dear reviewer, please state whether COc1cc(Nc2ncc(F)c(Nc3ccc4c(n3)N(COP(=O)(O)O)C(=O)C(C)(C)O4)n2)cc(OC)c1OC has RNA-seq results: CTH expression strictly beneath 0.2.
output: label 1

input: Dear reviewer, please state whether Cn1cnc2c(F)c(Nc3ccc(Br)cc3Cl)c(C(=O)NOCCO)cc21 has RNA-seq results: CTH expression strictly beneath 0.2.
output: label 0

input: Dear reviewer, please state whether C=CCNC1=C2C[C@@H](C)C[C@H](OC)[C@H](O)[C@@H](C)/C=C(\C)[C@H](OC(N)=O)[C@@H](OC)/C=C\C=C(/C)C(=O)NC(=CC1=O)C2=O has RNA-seq results: CTH expression strictly beneath 0.2.
output: label 0

input: Dear reviewer, please state whether Cn1cc(C2=C(c3cn(C4CCN(Cc5ccccn5)CC4)c4ccccc34)C(=O)NC2=O)c2ccccc21 has RNA-seq results: CTH expression strictly beneath 0.2.
output: label 1

input: Dear reviewer, please state whether CCC(CC)[C@H](NC(C)=O)[C@@H]1[C@H](O)[C@@H](C(=O)O)C[C@H]1NC(=N)N.O.O.O [peramivir (trihydrate), peramivir] has RNA-seq results: CTH expression strictly beneath 0.2.
output: label 0

====

system: hepatocytes; experiment: RNA-seq of hepatocytes treated with Phase III failure compounds; settings: gene SETBP1; hepatocytes
// not fulfilled strictly below 0.06 in RNA-seq results: SETBP1; fulfilled otherwise

Example entries begin here.
[[record]]
compound = "CCOC(=O)N1c2ccc(C(F)(F)F)cc2[C@@H](N(Cc2cc(C(F)(F)F)cc(C(F)(F)F)c2)C(=O)OC)C[C@H]1CC"
label_class = "not fulfilled"

[[record]]
compound = "COc1cc2c(Oc3ccc4[nH]c(C)cc4c3F)ncnc2cc1OCCCN1CCCC1"
label_class = "not fulfilled"

[[record]]
compound = "C=CCNC1=C2C[C@@H](C)C[C@H](OC)[C@H](O)[C@@H](C)/C=C(\\C)[C@H](OC(N)=O)[C@@H](OC)/C=C\\C=C(/C)C(=O)NC(=CC1=O)C2=O"
label_class = "fulfilled"

[[record]]
compound = "O=P(O)(NCCCl)NCCCl [Palifosfamide]"
label_class = "fulfilled"


input: Say whether Cn1cc(C2=C(c3cn(C4CCN(Cc5ccccn5)CC4)c4ccccc34)C(=O)NC2=O)c2ccccc21 shows RNA-seq results: SETBP1 of 0.06 or more.
output: fulfilled

input: Say whether CCN(CC)CCN(Cc1ccc(-c2ccc(C(F)(F)F)cc2)cc1)C(=O)Cn1c(SCc2ccc(F)cc2)nc(=O)c2c1CCC2 shows RNA-seq results: SETBP1 of 0.06 or more.
output: not fulfilled

====

BRAF expression, RNA-seq result values for the compounds below.
tested on: hepatocytes; assay: RNA-seq of hepatocytes treated with Phase III failure compounds; settings: gene BRAF; hepatocytes
Keep it simple and answer with nothing but the number.

input: Entry Cn1c(COP(=O)(NCCBr)NCCBr)cnc1[N+](=O)[O-] [TH-302 (Evofosfamide), Evofosfamide] : reported BRAF expression, RNA-seq result = ?
output: −0.01

input: Entry CN(C)[C@@H]1C(O)=C(C(N)=O)C(=O)[C@@]2(O)C(O)=C3C(=O)c4c(O)c(NC(=O)CN5CCCC5)cc(F)c4C[C@H]3C[C@@H]12 [TP-434 (Eravacycline), Eravacycline] : reported BRAF expression, RNA-seq result = ?
output: 0.03

input: Entry CC(C)[C@H](O)C(=O)N[C@@H](C)C(=O)N[C@@H]1C(=O)N(C)CCc2ccccc21 : reported BRAF expression, RNA-seq result = ?
output: 0.30

input: Entry COc1nc(C)cnc1NS(=O)(=O)c1cccnc1-c1ccc(-c2nnco2)cc1 : reported BRAF expression, RNA-seq result = ?
output: 0.82

====

test system: hepatocytes; experiment: RNA-seq of hepatocytes treated with Phase III failure compounds; details: gene CYP27A1; hepatocytes
// not met strictly below 0.1 in RNA-seq results: CYP27A1 expression; met otherwise

Example entries begin here.
[[record]]
compound = "NC(=O)c1ccc(I)c([N+](=O)[O-])c1 [BSI-201]"
label_class = "not met"

[[record]]
compound = "CCOC(=O)N1c2ccc(C(F)(F)F)cc2[C@@H](N(Cc2cc(C(F)(F)F)cc(C(F)(F)F)c2)C(=O)OC)C[C@H]1CC [Torcetrapib]"
label_class = "met"

[[record]]
compound = "CCC(CC)[C@H](NC(C)=O)[C@@H]1[C@H](O)[C@@H](C(=O)O)C[C@H]1NC(=N)N.O.O.O [peramivir (trihydrate), peramivir]"
label_class = "met"

[[record]]
compound = "O=P(O)(NCCCl)NCCCl [Palifosfamide]"
label_class = "met"

[[record]]
compound = "Cn1cnc2c(F)c(Nc3ccc(Br)cc3Cl)c(C(=O)NOCCO)cc21 [Selumetinib]"
label_class = "met"


input: Say whether Cn1cc(C2=C(c3cn(C4CCN(Cc5ccccn5)CC4)c4ccccc34)C(=O)NC2=O)c2ccccc21 [Enzastaurin] shows RNA-seq results: CYP27A1 expression of 0.1 or more.
output: not met

input: Say whether CCN(CC)CCN(Cc1ccc(-c2ccc(C(F)(F)F)cc2)cc1)C(=O)Cn1c(SCc2ccc(F)cc2)nc(=O)c2c1CCC2 [Darapladib] shows RNA-seq results: CYP27A1 expression of 0.1 or more.
output: not met

input: Say whether COc1cc(Nc2ncc(F)c(Nc3ccc4c(n3)N(COP(=O)(O)O)C(=O)C(C)(C)O4)n2)cc(OC)c1OC [fostamatinib] shows RNA-seq results: CYP27A1 expression of 0.1 or more.
output: not met

input: Say whether COc1cc2c(Oc3ccc4[nH]c(C)cc4c3F)ncnc2cc1OCCCN1CCCC1 [Cediranib] shows RNA-seq results: CYP27A1 expression of 0.1 or more.
output: met

input: Say whether C=CCNC1=C2C[C@@H](C)C[C@H](OC)[C@H](O)[C@@H](C)/C=C(\C)[C@H](OC(N)=O)[C@@H](OC)/C=C\C=C(/C)C(=O)NC(=CC1=O)C2=O [17-MG (Tanespimycin), Tanespimycin] shows RNA-seq results: CYP27A1 expression of 0.1 or more.
output: not met

input: Say whether COc1cc2nccc(Oc3ccc(NC(=O)Nc4cc(C)on4)c(Cl)c3)c2cc1OC [Tivozanib] shows RNA-seq results: CYP27A1 expression of 0.1 or more.
output: not met

====

test system: hepatocytes; test: RNA-seq of hepatocytes stimulated with the compounds of Table 68; details: hepatocytes stimulated with the compound; RNA-seq; significance: FPKM≥1, q-value≤0.05, log 2 fold change≥1.5
# of genes having significantly altered expression values for the compounds below.
Keep it simple and answer with nothing but the number.

Sample records with # of genes having significantly altered expression:
[[record]]
compound = "C=C1/C(=C\\C=C2/CCC[C@]3(C)[C@@H]([C@H](C)/C=C/C=C/C(O)(CC)CC)CC[C@@H]23)C[C@@H](O)C[C@@H]1O"
measured_result = 68

[[record]]
compound = "COc1cc(Nc2c(C#N)cnc3cc(OCCCN4CCN(C)CC4)c(OC)cc23)c(Cl)cc1Cl"
measured_result = 2184

[[record]]
compound = "COc1ccc2[nH]c([S+]([O-])Cc3ncc(C)c(OC)c3C)nc2c1 (stereo not shown)"
measured_result = 61


With those in mind, consider the next compound.
input: Entry CNC(=O)c1ccccc1Sc1ccc2c(/C=C/c3ccccn3)n[nH]c2c1 : reported # of genes having significantly altered expression = ?
output: 5

====

test system: hepatocytes; assay: RNA-seq of hepatocytes treated with Phase III failure compounds; details: gene SLC19A1; hepatocytes
RNA-seq results: SLC19A1 values for the molecules below.

Sample records with RNA-seq results: SLC19A1:
[[record]]
molecule = "O=P(O)(NCCCl)NCCCl [Palifosfamide]"
test_system = "hepatocytes"
measured_result = "−0.10"

[[record]]
molecule = "NC(=O)c1ccc(I)c([N+](=O)[O-])c1"
test_system = "hepatocytes"
measured_result = 0.05


input: Short answer please: RNA-seq results: SLC19A1, hepatocytes, entry C=CCNC1=C2C[C@@H](C)C[C@H](OC)[C@H](O)[C@@H](C)/C=C(\C)[C@H](OC(N)=O)[C@@H](OC)/C=C\C=C(/C)C(=O)NC(=CC1=O)C2=O
output: −0.71
